test system: JCV strain Mad1/SVEΔ; assay: microbe, parasite or virus in culture; assay type: cell-based, JC polyomavirus (JCV); details: JC polyomavirus, SVG-A, read-out: % Inhibition (% JCV+) @10 uM
Counter-ions that a name gives are not always drawn.
measurement name: inhibition at 10 µM (%)

compound	experimental system	measurement name	result
CN(CCOc1ccc(CC2SC(=O)NC2=O)cc1)c1ccccn1 (stereo not shown) [ROSIGLITAZONE]	JCV strain Mad1/SVEΔ	inhibition at 10 µM	23
CC1=C(/C=C/C(C)=C/C=C/C(C)=C\C(=O)O)C(C)(C)CCC1 [ISOTRETINOIN]	JCV strain Mad1/SVEΔ	inhibition at 10 µM	28
Cc1cccc(Nc2ccccc2C(=O)O)c1C [MEFENAMIC ACID]	JCV strain Mad1/SVEΔ	inhibition at 10 µM	29
O=c1c2ccccc2oc2ccccc12 [XANTHONE]	JCV strain Mad1/SVEΔ	inhibition at 10 µM	39
C[C@H]1C[C@H]2[C@@H]3CCC4=CC(=O)C=C[C@]4(C)[C@@]3(F)[C@@H](O)C[C@]2(C)[C@@]1(O)C(=O)CO [BETAMETHASONE]	JCV strain Mad1/SVEΔ	inhibition at 10 µM	24
C[C@H]1CC[C@]2(NC1)O[C@H]1C[C@H]3[C@@H]4CC[C@H]5C[C@@H](O[C@@H]6O[C@H](CO)[C@H](O[C@@H]7O[C@H](CO)[C@@H](O)[C@H](O[C@@H]8OC[C@@H](O)[C@H](O)[C@H]8O)[C@H]7O[C@@H]7O[C@H](CO)[C@@H](O)[C@H](O)[C@H]7O)[C@H](O)[C@H]6O)CC[C@]5(C)[C@H]4CC[C@]3(C)[C@H]1[C@@H]2C [TOMATINE]	JCV strain Mad1/SVEΔ	inhibition at 10 µM	29
COc1cc([C@@H]2c3cc4c(cc3[C@H](O)[C@H]3COC(=O)[C@@H]23)OCO4)cc(OC)c1OC [PICROPODOPHYLLOTOXIN]	JCV strain Mad1/SVEΔ	inhibition at 10 µM	22
c1ccc2[nH]c(-c3cscn3)nc2c1 [THIABENDAZOLE]	JCV strain Mad1/SVEΔ	inhibition at 10 µM	22
COc1ccc2c(c1)c(CC(=O)OCC(=O)O)c(C)n2C(=O)c1ccc(Cl)cc1 [ACEMETACIN]	JCV strain Mad1/SVEΔ	inhibition at 10 µM	38
Cc1c(Cl)cccc1Nc1ccccc1C(=O)O [TOLFENAMIC ACID]	JCV strain Mad1/SVEΔ	inhibition at 10 µM	53
CCC(=O)Nc1ccc(Cl)c(Cl)c1 [PROPANIL]	JCV strain Mad1/SVEΔ	inhibition at 10 µM	21
COC(=O)c1c(C)c2c(c(C)c1O)OC(=O)c1c(C)c(Cl)c(O)c(Cl)c1O2 [LEOIDIN]	JCV strain Mad1/SVEΔ	inhibition at 10 µM	21
O=c1cc(-c2ccc(O)cc2)oc2ccc(O)cc12 [6,4′-DIHYDROXYFLAVONE]	JCV strain Mad1/SVEΔ	inhibition at 10 µM	22
CCCCCCCCCCCCCCCC(=O)OC[C@@H](NC(=O)C(Cl)Cl)[C@H](O)c1ccc([N+](=O)[O-])cc1 [CHLORAMPHENICOL PALMITATE]	JCV strain Mad1/SVEΔ	inhibition at 10 µM	29
O=c1cc(-c2ccccc2)oc2cc(O)cc(O)c12 [CHRYSIN]	JCV strain Mad1/SVEΔ	inhibition at 10 µM	26
COc1ccc([C@@H]2Sc3ccccc3N(CCN(C)C)C(=O)[C@@H]2OC(C)=O)cc1 [DILTIAZEM HYDROCHLORIDE]	JCV strain Mad1/SVEΔ	inhibition at 10 µM	24
